# credit: BigSolDB 2.1

conditions: in toluene, 312.55 K
parameter: solubility (mole fraction)

smiles_repr=O=C1Cc2ccccc2N1 value_reported=0.018

----------
details: in ethyl acetate, 319.05 K
parameter: solubility (mole fraction)

smiles_repr=O=C1Cc2ccccc2N1 value_reported=0.27

----------
settings: in n-propanol, 293.15 K
parameter: solubility (mole fraction)

smiles_repr=O=C1Cc2ccccc2N1 value_reported=0.0387

----------
settings: in isopropanol, 303.05 K
parameter: solubility (mole fraction)

smiles_repr=O=C1Cc2ccccc2N1 value_reported=0.0122

----------
details: in ethanol, 307.65 K
parameter: solubility (mole fraction)

smiles_repr=O=C1Cc2ccccc2N1 value_reported=0.0253

----------
conditions: in n-butanol, 298.65 K
parameter: solubility (mole fraction)

smiles_repr=O=C1Cc2ccccc2N1 value_reported=0.00379
